- measured_on: porcine cortical p5-HT1a serotonin receptor (Sus scrofa, UniProt A0A4X1UTF5)
- Sequence (A0A4X1UTF5 1-422): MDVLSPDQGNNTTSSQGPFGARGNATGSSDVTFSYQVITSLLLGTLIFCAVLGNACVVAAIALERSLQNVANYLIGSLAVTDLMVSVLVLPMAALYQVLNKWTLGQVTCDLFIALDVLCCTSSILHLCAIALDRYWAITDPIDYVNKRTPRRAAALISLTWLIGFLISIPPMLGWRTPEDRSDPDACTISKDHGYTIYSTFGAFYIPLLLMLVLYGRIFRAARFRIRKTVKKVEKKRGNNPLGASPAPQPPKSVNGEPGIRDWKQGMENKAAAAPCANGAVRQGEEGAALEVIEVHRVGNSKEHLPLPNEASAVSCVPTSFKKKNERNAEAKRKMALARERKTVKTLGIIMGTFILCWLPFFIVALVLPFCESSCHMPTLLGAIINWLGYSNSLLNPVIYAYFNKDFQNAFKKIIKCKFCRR
pKi: −log10 of the molar value.
readout_kind: pKi

1) CCCN(CCc1ccccc1)C1CCc2cccc(OC)c2C1 (stereo not drawn) = 8.60
2) CCCN(CCc1cccs1)[C@@H]1CCc2cccc(OC)c2C1 = 8.14
3) CCCN(CCc1cccs1)[C@H]1CCc2cccc(O)c2C1 = 8.74

---

- measured_on: porcine cortical p5-HT2 serotonin receptor (Sus scrofa)
- Sequence (P50129 whole entry): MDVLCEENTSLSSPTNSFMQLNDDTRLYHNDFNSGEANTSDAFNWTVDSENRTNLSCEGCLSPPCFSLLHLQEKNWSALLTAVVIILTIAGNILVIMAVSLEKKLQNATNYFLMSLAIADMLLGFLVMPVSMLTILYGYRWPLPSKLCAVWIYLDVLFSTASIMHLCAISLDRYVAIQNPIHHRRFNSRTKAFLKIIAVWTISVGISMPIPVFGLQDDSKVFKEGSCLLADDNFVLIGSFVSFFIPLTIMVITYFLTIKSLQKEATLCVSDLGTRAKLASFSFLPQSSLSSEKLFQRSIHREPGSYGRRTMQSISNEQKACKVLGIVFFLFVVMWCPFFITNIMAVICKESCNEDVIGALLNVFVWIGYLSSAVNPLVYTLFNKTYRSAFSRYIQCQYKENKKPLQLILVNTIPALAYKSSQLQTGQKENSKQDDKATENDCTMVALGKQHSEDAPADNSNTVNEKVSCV
Please use 1 for Ki under 4 µM and -1 for everything else, ties included.

1) CCCN(CCc1cccs1)C1CCc2cccc(O)c2C1 (centres unmarked) = 1
2) CCCN(CCc1cc2ccc1CCc1ccc(cc1)CC2)C1CCc2cccc(O)c2C1 (centres unmarked) = 1
3) CCCN(CCC)C1CCc2cccc(O)c2C1 (stereo not drawn) [R-(+)-8-OH-DPAT, reference compound] = 1
4) CCCN(CCc1ccccc1)C1CCc2cccc(O)c2C1 (centres unmarked) = -1
5) CCCN(CCc1cc(C)ccc1C)C1CCc2cccc(O)c2C1 (centres unmarked) = 1
6) CCCN(CCc1cccs1)[C@H]1CCc2cccc(O)c2C1 = -1
7) CCCN(CCc1cccs1)C1CCc2cccc(OC)c2C1 (centres unmarked) = -1
8) CCCN(CCc1ccc(O)cc1)C1CCc2cccc(O)c2C1 (centres unmarked) = -1
9) CCCN(CCc1cccs1)[C@@H]1CCc2cccc(O)c2C1 = 1
10) CCCN(CCc1cc2ccc1CCc1ccc(cc1)CC2)C1CCc2cccc(OC)c2C1 (centres unmarked) = -1

---

- measured_on: porcine cortical pα1 adrenergic receptor
- Construct: Ki pα1; other: means of 2-8 individual experiments each done as triplicate
- assay_summary: Receptor binding assay, [3H]prazosin competition, porcine cortical membranes
- assay_context: means of 2-8 individual experiments each done as triplicate
readout_kind: Ki (nM)

1. CCCN(CCc1ccc(O)cc1)C1CCc2cccc(O)c2C1 (stereo not drawn) = 87
2. CCCN(CCC)C1CCc2cccc(O)c2C1 (stereo not drawn) [R-(+)-8-OH-DPAT, reference compound] = 250
3. CCCN(CCc1cc(C)ccc1C)C1CCc2cccc(O)c2C1 (stereo not drawn) = 78
4. CCCN(CCc1cccs1)[C@@H]1CCc2cccc(O)c2C1 = 640
5. CCCN(CCc1cccs1)[C@H]1CCc2cccc(OC)c2C1 = 140
6. CCCN(CCc1ccccc1)C1CCc2cccc(OC)c2C1 (stereo not drawn) = 190
7. CCCN(CCc1cccs1)[C@H]1CCc2cccc(O)c2C1 = 200
8. CCCN(CCc1cccs1)C1CCc2cccc(O)c2C1 (stereo not drawn) = 170
9. CCCN(CCc1ccccc1)C1CCc2cccc(O)c2C1 (stereo not drawn) = 140
10. CCCN(CCc1cc(C)ccc1C)C1CCc2cccc(OC)c2C1 (stereo not drawn) = 510
11. CCCN(CCc1cc2ccc1CCc1ccc(cc1)CC2)C1CCc2cccc(OC)c2C1 (stereo not drawn) = 280
12. CCCN(CCc1cccs1)C1CCc2cccc(OC)c2C1 (stereo not drawn) = 200
13. CCCN(CCc1ccc(OC)cc1)C1CCc2cccc(OC)c2C1 (stereo not drawn) = 230
14. CCCN(CCc1cccs1)[C@@H]1CCc2cccc(OC)c2C1 = 140
15. CCCN(CCc1cc2ccc1CCc1ccc(cc1)CC2)C1CCc2cccc(O)c2C1 (stereo not drawn) = 930

---

- System: porcine cortical pα1 adrenergic receptor
- assay_summary: Receptor binding assay, [3H]prazosin competition, porcine cortical membranes
- assay_context: vs p5-HT1a
Answer Not met if selectivity ratio pα1 is under 80, and Met if it is 80 or more.

1. CCCN(CCc1cccs1)C1CCc2cccc(O)c2C1 (centres unmarked) = Met
2. CCCN(CCc1ccccc1)C1CCc2cccc(O)c2C1 (centres unmarked) = Met
3. CCCN(CCc1cc2ccc1CCc1ccc(cc1)CC2)C1CCc2cccc(O)c2C1 (centres unmarked) = Not met
4. CCCN(CCc1cc2ccc1CCc1ccc(cc1)CC2)C1CCc2cccc(OC)c2C1 (centres unmarked) = Not met
5. CCCN(CCc1cc(C)ccc1C)C1CCc2cccc(O)c2C1 (centres unmarked) = Not met
6. CCCN(CCc1cccs1)[C@H]1CCc2cccc(O)c2C1 = Met

---

Hi! I'm sharing some log10 of Ki results obtained with human dopamine receptor subtype hD4.4 (Homo sapiens).
Sequence (P21917 whole entry): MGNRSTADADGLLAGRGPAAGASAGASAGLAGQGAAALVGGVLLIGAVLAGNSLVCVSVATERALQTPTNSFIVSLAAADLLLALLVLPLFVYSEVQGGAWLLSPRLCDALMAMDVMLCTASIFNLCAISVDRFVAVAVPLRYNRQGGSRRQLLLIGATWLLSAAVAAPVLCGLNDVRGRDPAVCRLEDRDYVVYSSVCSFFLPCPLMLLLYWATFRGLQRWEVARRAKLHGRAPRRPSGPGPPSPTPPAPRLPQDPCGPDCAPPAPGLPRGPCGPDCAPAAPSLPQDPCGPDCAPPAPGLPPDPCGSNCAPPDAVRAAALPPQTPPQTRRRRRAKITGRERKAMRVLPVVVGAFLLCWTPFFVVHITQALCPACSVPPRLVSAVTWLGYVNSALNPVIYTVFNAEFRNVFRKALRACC
readout_kind: log10 of Ki (log10 of the value in nM)

1) CCCN(CCc1cc2ccc1CCc1ccc(cc1)CC2)C1CCc2cccc(O)c2C1 (stereo not drawn) = 1.94
2) CCCN(CCc1cc2ccc1CCc1ccc(cc1)CC2)C1CCc2cccc(OC)c2C1 (stereo not drawn) = 2.04
3) CCCN(CCc1cccs1)[C@@H]1CCc2cccc(OC)c2C1 = 2.94
4) CCCN(CCc1ccccc1)C1CCc2cccc(O)c2C1 (stereo not drawn) = 2.77
5) CCCN(CCc1ccccc1)C1CCc2cccc(OC)c2C1 (stereo not drawn) = 2.72
6) CCCN(CCc1ccc(O)cc1)C1CCc2cccc(O)c2C1 (stereo not drawn) = 2.76
7) CCCN(CCc1cccs1)[C@H]1CCc2cccc(OC)c2C1 = 2.88
8) CCCN(CCC)C1CCc2cccc(O)c2C1 (stereo not drawn) [R-(+)-8-OH-DPAT, reference compound] = 2.32
9) CCCN(CCc1cccs1)[C@H]1CCc2cccc(O)c2C1 = 2.84
10) CCCN(CCc1cc(C)ccc1C)C1CCc2cccc(O)c2C1 (stereo not drawn) = 2.69
11) CCCN(CCc1cccs1)C1CCc2cccc(O)c2C1 (stereo not drawn) = 2.28
12) CCCN(CCc1cccs1)[C@@H]1CCc2cccc(O)c2C1 = 2.00

---

- measured_on: human dopamine receptor subtype hD2short (Homo sapiens)
- Construct: expressed in transfected cells; host or cells: CHO
- Sequence (P14416 1-414 isoform P14416-2): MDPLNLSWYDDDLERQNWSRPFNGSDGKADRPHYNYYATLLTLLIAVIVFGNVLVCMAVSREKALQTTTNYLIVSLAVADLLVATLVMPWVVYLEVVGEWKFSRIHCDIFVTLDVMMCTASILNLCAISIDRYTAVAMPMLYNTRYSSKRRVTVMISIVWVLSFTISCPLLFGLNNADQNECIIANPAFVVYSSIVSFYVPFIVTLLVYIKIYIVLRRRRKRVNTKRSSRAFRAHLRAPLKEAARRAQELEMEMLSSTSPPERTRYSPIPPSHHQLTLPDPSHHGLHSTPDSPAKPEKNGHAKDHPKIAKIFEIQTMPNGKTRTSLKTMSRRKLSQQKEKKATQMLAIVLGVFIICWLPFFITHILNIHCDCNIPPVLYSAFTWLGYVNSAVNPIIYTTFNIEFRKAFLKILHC
- assay_summary: Receptor binding assay, [3H]spiperone competition, CHO cell membranes
- assay_context: vs p5-HT1a
Answer n if selectivity ratio hD2short is under 50, and y if it is 50 or more.

1. CCCN(CCc1cccs1)C1CCc2cccc(O)c2C1 (centres unmarked) = y
2. CCCN(CCc1cc2ccc1CCc1ccc(cc1)CC2)C1CCc2cccc(OC)c2C1 (centres unmarked) = n
3. CCCN(CCc1cc(C)ccc1C)C1CCc2cccc(O)c2C1 (centres unmarked) = y
4. CCCN(CCc1cccs1)[C@@H]1CCc2cccc(O)c2C1 = y
5. CCCN(CCc1cc2ccc1CCc1ccc(cc1)CC2)C1CCc2cccc(O)c2C1 (centres unmarked) = n
6. CCCN(CCc1cccs1)[C@H]1CCc2cccc(O)c2C1 = y
7. CCCN(CCc1ccc(O)cc1)C1CCc2cccc(O)c2C1 (centres unmarked) = y
8. CCCN(CCc1ccccc1)C1CCc2cccc(O)c2C1 (centres unmarked) = y

---

# selectivity ratio hD3 per record follows
- measured_on: human dopamine receptor subtype hD3 (Homo sapiens, UniProt P35462)
- Construct: expressed in transfected cells; host or cells: CHO
- Sequence (P35462 whole entry): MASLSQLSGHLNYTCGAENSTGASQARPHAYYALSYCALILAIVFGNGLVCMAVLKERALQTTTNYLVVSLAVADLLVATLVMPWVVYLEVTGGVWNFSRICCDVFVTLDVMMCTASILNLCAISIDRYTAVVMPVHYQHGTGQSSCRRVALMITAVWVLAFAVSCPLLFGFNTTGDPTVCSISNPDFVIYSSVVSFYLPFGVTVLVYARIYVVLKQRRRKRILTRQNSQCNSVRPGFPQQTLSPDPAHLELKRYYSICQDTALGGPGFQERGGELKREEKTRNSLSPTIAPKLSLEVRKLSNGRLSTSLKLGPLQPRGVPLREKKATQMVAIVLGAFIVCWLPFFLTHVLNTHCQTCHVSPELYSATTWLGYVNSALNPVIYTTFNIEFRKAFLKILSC
- assay_summary: Receptor binding assay, [3H]spiperone competition, CHO cell membranes
- assay_context: vs p5-HT1a
- Description: Receptor binding data were determined when performing competition binding assays with membrane preparations of cloned cells (stably transfected Chinese Hamster Ovary cells (CHO)) expressing the human receptors and the following radioligands: [^3H]spiperone at the human dopamine receptor subtypes hD2long, hD2short, D3, and hD4.4. Selectivity ratios were calculated by division of the Ki values of the various compounds at the respective receptors through the Ki values at the 5HT1a receptor.
readout_kind: selectivity ratio hD3

1) CCCN(CCc1cccs1)[C@H]1CCc2cccc(O)c2C1 = 26
2) CCCN(CCc1cc2ccc1CCc1ccc(cc1)CC2)C1CCc2cccc(OC)c2C1 (stereo not shown) = 0.66
3) CCCN(CCc1cc2ccc1CCc1ccc(cc1)CC2)C1CCc2cccc(O)c2C1 (stereo not shown) = 11
4) CCCN(CCc1cccs1)[C@@H]1CCc2cccc(O)c2C1 = 190

The measurements presented in this section are drawn from patent US8586603B2.
